Test system: Vero
Experiment: Cytotoxicity against african green monkey Vero cells
Format: cell-based
Conditions: chlorocebus sabaeus

Molecule	Activity [µg/mL]
O=C1CCCN2[C@@H](CC1)C[C@]13CN4CCCC/C=C\CC[C@](O)(C=C(c5nccc6c5[nH]c5ccc(O)cc56)[C@@H]1CC4)[C@H]23	4.3
O[C@]12C=C(c3nccc4c3[nH]c3ccccc34)[C@@H]3CCN(CCCC/C=C\CC1)C[C@@]31C[C@@H]3/C=C\CCCCN3[C@H]12	1.2
Oc1cccc2c1[nH]c1c(C3=C[C@@]4(O)CC/C=C\CCCCN5CC[C@@H]3[C@]3(CC6/C=C\CCCCN6[C@H]34)C5)nccc12 (stereo not given in full)	1.1
O[C@]12C=C(c3nccc4c3[nH]c3ccccc34)C3CCN(CCCC/C=C\CC1)C[C@@]31C[C@]34CC[C@H](CCCN3[C@H]12)O4 (stereo not given in full)	4.7
[O-][n+]1ccc2c([nH]c3ccccc32)c1C1=C[C@@]2(O)CC/C=C\CCCCN3CC[C@@H]1[C@]1(C[C@@H]4/C=C\CCCCN4[C@H]12)C3	4.2

----------
System: Plasmodium falciparum
Experiment: Antimalarial activity against Plasmodium falciparum D6
Type: functional, organism-based
Each entry below carries its recorded log10(IC50).
Observable: log10(IC50) (log10 of the value in µg/mL)

Structure Smiles	log10(IC50)
O[C@@H]1CCCN2CC[C@@H]1O[C@@]13CC[C@@H](OC[C@]45CN6CCCC/C=C\CC[C@](O)(C=C(c7nccc8c7[nH]c7ccccc78)[C@@H]4CC6)[C@H]25)[C@@H](O)CCN1[C@@H]1[C@]2(CN4CCCC/C=C\CC[C@]1(O)C=C(c1nccc5c1[nH]c1ccccc15)[C@@H]2CC4)C3	0.23
OC1=C[C@@]2(O)CC/C=C\CCCCN3CC[C@@H]1[C@]1(C[C@@H]4/C=C\CCCCN4[C@H]12)C3	0.38
O[C@]12C=C(c3nccc4c3[nH]c3ccccc34)[C@@H]3CCN(CCCC/C=C\CC1)C[C@@]31CC/C=C\CCCCN[C@H]12	0.11
O=C1CCCN2[C@@H]3[C@@]45CN6CCCC/C=C\CC[C@@]3(C=C(c3nccc7c3[nH]c3ccccc37)[C@@H]4CC6)O[C@]2(CC1)C5	0.20
[O-][n+]1ccc2c([nH]c3ccccc32)c1C1=C[C@@]2(O)CC/C=C\CCCCN3CC[C@@H]1[C@]1(C[C@@H]4/C=C\CCCCN4[C@H]12)C3	-1.96

----------
Test system: Leishmania donovani
Experiment: Antileishmanial activity against Leishmania donovani
Assay type: functional, organism-based

Molecule	Assay Target	IC50
O=CC1=C[C@@]2(O)CC/C=C\CCCCN3CC[C@@H]1[C@]1(C[C@@H]4/C=C\CCCCN4[C@H]12)C3 [IRCINAL]	Leishmania donovani	4.6 µg/mL
[O-][n+]1ccc2c([nH]c3ccccc32)c1C1=C[C@@]2(O)CC/C=C\CCCCN3CC[C@@H]1[C@]1(C[C@@H]4/C=C\CCCCN4[C@H]12)C3	Leishmania donovani	1.1 µg/mL
O[C@@H]1CCCN2CC[C@@H]1O[C@@]13CC[C@@H](OC[C@]45CN6CCCC/C=C\CC[C@](O)(C=C(c7nccc8c7[nH]c7ccccc78)[C@@H]4CC6)[C@H]25)[C@@H](O)CCN1[C@@H]1[C@]2(CN4CCCC/C=C\CC[C@]1(O)C=C(c1nccc5c1[nH]c1ccccc15)[C@@H]2CC4)C3 [NEO-KAULUAMINE]	Leishmania donovani	4.2 µg/mL
O[C@]12C=C(c3nccc4c3[nH]c3ccccc34)[C@@H]3CCN(CCCC/C=C\CC1)C[C@@]31CC/C=C\CCCCN[C@H]12 [MANZAMINE J]	Leishmania donovani	25 µg/mL
